Measured values drawn from patent US8338597B2 for this set.

target: Itk (Homo sapiens, UniProt Q08881); test: ITK inhibition assay, radioactive-phosphate incorporation; type: biochemical; settings: [γ-33P]ATP, SAM68 peptide, 25° C.
Sequence (Q08881 whole entry, species assumed): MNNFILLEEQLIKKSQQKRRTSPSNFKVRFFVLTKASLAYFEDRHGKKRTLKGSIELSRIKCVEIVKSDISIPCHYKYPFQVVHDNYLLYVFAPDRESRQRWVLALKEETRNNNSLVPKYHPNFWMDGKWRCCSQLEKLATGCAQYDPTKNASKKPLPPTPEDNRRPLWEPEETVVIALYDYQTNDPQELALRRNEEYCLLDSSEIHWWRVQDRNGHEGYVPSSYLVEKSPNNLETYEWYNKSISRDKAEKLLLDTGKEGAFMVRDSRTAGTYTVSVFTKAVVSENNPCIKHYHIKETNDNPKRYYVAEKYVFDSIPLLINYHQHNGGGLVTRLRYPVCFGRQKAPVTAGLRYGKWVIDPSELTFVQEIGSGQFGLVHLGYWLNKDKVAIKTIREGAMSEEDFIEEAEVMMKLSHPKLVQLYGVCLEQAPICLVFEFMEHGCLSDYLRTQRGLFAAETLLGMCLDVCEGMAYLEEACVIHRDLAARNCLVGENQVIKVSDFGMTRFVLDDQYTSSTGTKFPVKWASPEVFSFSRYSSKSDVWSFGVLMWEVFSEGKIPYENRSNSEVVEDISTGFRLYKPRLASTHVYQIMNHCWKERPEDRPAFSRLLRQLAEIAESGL
readoutKind: Ki

Consider the following illustrative entries.
compound | experimentalValue
CC(C)(C)c1ccc(C(=O)Nc2cc(-c3cccc(NC4CCNCC4)n3)c[nH]c2=O)cc1 | 100 to 1000 nM
CN(C)CCNc1nccc(-c2c[nH]c(=O)c(NC(=O)c3ccc(N4CCCCC4)cc3)c2)n1 | < 100 nM
CNc1cc(-c2c[nH]c(=O)c(NC(=O)c3ccc(N4CCNCC4)cc3)c2)ncn1 | < 100 nM
CNc1cncc(-c2c[nH]c(=O)c(NC(=O)c3ccc(N(C)CCCN(C)C)cc3)c2)n1 | < 100 nM
O=C(Nc1cc(-c2cccc(NCC3CCNCC3)n2)c[nH]c1=O)c1ccc(N2CCCCC2)cc1 | 100 to 1000 nM

// lookup Ki for `O=C(Nc1ccc(N2CCC(O)CC2)cc1)c1cc(-c2ccncc2)c[nH]c1=O`
< 100 nM

// lookup Ki for `CNc1cncc(-c2c[nH]c(=O)c(NC(=O)c3ccc(OCCN4CCNCC4)cc3)c2)n1`
< 100 nM

// lookup Ki for `CC(C)[C@H](CO)Nc1cccc(-c2c[nH]c(=O)c(NC(=O)c3ccc(N4CCCCC4)cc3)c2)n1`
100 to 1000 nM
